- test-target: Bromodomain-containing protein 9 (Homo sapiens)
- Sequence (whole entry): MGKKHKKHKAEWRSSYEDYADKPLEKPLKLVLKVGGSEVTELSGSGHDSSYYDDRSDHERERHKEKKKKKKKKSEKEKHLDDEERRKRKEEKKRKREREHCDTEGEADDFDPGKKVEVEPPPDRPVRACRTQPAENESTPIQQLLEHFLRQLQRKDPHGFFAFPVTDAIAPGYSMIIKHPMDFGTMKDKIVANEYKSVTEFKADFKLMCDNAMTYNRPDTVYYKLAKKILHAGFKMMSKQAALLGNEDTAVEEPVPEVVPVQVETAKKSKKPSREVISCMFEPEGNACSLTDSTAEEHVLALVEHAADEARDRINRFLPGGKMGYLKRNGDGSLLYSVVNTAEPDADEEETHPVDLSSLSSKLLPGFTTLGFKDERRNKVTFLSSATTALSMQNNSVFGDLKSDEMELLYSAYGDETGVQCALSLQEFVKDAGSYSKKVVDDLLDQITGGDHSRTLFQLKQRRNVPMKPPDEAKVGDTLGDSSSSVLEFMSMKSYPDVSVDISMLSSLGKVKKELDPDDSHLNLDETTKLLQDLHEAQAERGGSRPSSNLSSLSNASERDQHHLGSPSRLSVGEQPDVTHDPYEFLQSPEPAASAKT
- assay-info: Binding affinity to human BRD9 expressed in Escherichia coli BL21(DE3)-R3-pRARE2 assessed as change in melting temperature at 25 uM by SYPRO orange based protein stability shift assay
Can you tell me ΔTm for the items I'm about to list?
One number for each entry, in °C.

| molecule | test-target | observed-property | units-symbol | assay-value |
| --- | --- | --- | --- | --- |
| Cc1noc(C)c1-c1cc(OCCCCCCCC(=O)NO)cc(C(=O)c2ccccc2)c1 | Bromodomain-containing protein 9 (Homo sapiens) | ΔTm | °C | 1.22 |
| Cc1noc(C)c1-c1cc(OCCCCC(=O)NO)cc(C(=O)c2ccccc2)c1 | Bromodomain-containing protein 9 (Homo sapiens) | ΔTm | °C | -0.75 |
| Cc1noc(C)c1-c1cc(OCCCCCCC(=O)NO)cc(C(=O)c2ccccc2)c1 | Bromodomain-containing protein 9 (Homo sapiens) | ΔTm | °C | 1.72 |
| Cc1noc(C)c1-c1cc(NC(=O)CCCCC(=O)NO)cc(C(=O)c2ccccc2)c1 | Bromodomain-containing protein 9 (Homo sapiens) | ΔTm | °C | 2.79 |

Below are some molecules; for each one, tell me its ΔTm.
1. Cc1noc(C)c1-c1cc(OCCCCCC(=O)NO)cc(C(=O)c2ccccc2)c1
2. Cc1noc(C)c1-c1cc(NC(=O)CCCCCC(=O)NO)cc(C(=O)c2ccccc2)c1

1. 1.56
2. 2.26

Can you give me ΔTm for all of these, one by one?
1. Cc1noc(C)c1-c1cccc(NC(=O)CCCCCC(=O)NO)c1
2. Cc1noc(C)c1-c1cc(NC(=O)CCCCCCC(=O)NO)cc(C(=O)c2ccccc2)c1
3. Cc1noc(C)c1-c1cc(OCCCCCCC(=O)NO)cc(C(O)c2ccccc2)c1 (centres undefined)

1. -0.13
2. 2.97
3. 1.55

These data points were gathered from ChEMBL document CHEMBL3817837.
